B1: Azoarcus group I ribozyme (parent)
chain: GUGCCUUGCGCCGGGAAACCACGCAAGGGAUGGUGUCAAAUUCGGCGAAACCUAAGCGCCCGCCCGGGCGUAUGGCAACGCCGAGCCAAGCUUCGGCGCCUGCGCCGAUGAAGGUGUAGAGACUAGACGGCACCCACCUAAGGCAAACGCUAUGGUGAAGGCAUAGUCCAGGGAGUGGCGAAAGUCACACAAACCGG

# Variants of: B1
# test-method-notes: reverse-splicing fitness (ratio to wild type); higher = more active; in vitro selection; Mg2+ level not given
# reverse-splicing fitness >= 0.009 gives TRUE, anything below gives FALSE

- C82G A111G A120C A145G C150G C169U U176A: TRUE
- C82G A145C C150A C169U U176C: FALSE
- C82G A111G A120C A145U C150U U176A: TRUE
- C82G A111U A120C C150A U176G: TRUE
- C82U A111G A120U A145G C150U U176A: TRUE
- A111G A120G A145C C150G C169A: TRUE
- C82A A120G C169G U176G: FALSE
- C82U A120C A145G C150A C169U U176G: FALSE
- C82A A111U A145U C150G C169G: FALSE
- C82G A111G A145G C150A C169G: TRUE
- C82U A111U A145C C169G U176C: TRUE
- C82G A111C A120U A145G C150A C169A U176A: FALSE
- C82U A111U A120U A145U C150U C169A U176C: FALSE
- C82G A111U A120C A145C C150A C169G U176G: FALSE
- A111C A145C C169G U176A: TRUE
- C82G A111G A120U C150U C169A U176C: FALSE
- A111C A120G C150A C169U U176G: FALSE
- C82G A111C A120C A145C U176G: FALSE
- A111C A120U A145G C150G C169G U176A: TRUE
- C82G A111U A145U C169U U176A: TRUE
- C82G A120G A145C C169U U176G: FALSE
- C82G A111C A145G C150A C169G U176A: TRUE
- C82A A111C A120U A145G C169U U176C: FALSE
- C82A A111U A120U C150A C169G: FALSE
- C82G A120U C150U C169A U176G: FALSE
- C82A A111C A120C A145U C169G U176C: TRUE
- C82G A111G A120G A145U C150U C169G U176G: FALSE
- C82G A145G C150G C169G U176A: TRUE
- C82G A111C A120C A145U C150A C169U: TRUE
- C82A A111G A145C: TRUE
- C82A A111C A145C C150A C169G U176G: TRUE
- A111U A120G A145U C150U C169U U176C: TRUE
- A111G A145C C150G U176A: TRUE
- C82A A111G A120C C150A C169U U176G: TRUE
- A120C A145C C169A U176G: FALSE
- C82G A120C C169A U176G: FALSE
- A145U C150U C169G U176C: TRUE
- C82A A111U A120G A145U C150G U176C: FALSE
- C82A A111G A120G A145C C169G U176C: TRUE
- A111C A120G A145U: TRUE
- C82G A120C C150A C169G U176G: FALSE
- C82A A111U A120C A145C C169A U176G: FALSE
- C82U A111U A145U C150G C169G: FALSE
- C82U A120C A145U C150A C169G: FALSE
- C82A A111U A120G A145C C169U: FALSE
- C82G A120U A145G C150A U176C: TRUE
- C82U A111G A120U A145G C150U C169G: FALSE
- A111G A120C C150A U176G: TRUE
- C82A A120U A145C C150A U176C: FALSE
- C82G A111C A145U C169G: TRUE
- C82U A111C A120C A145U C150U C169U U176G: FALSE
- A111C A120C C169A U176C: TRUE
- C82U C169U U176C: TRUE
- C82U A120C A145G C169A U176A: TRUE
- C82A A111U A120G A145G C150A U176A: TRUE
- C82G A111C A145G C150A U176A: TRUE
- A111U A120C A145U C150U U176G: TRUE
- C82G A111G A120G A145C C169A U176A: TRUE
- C82A A145U C150U C169A U176G: FALSE
- C82G A111U A145U C169U: TRUE
- C82U A111G C150A C169A U176G: FALSE
- C82U A111U A145U C150U C169U: TRUE
- A145U C169G U176A: TRUE
- C82A A111C A120U A145U C150U C169G U176G: FALSE
- C82U A111C A120G C169U U176G: FALSE
- C82U A120U A145U C169A U176G: FALSE
- C82G A111U C150G C169A U176A: TRUE
- C82A A111G A120C A145U C150G C169U U176C: TRUE
- A111U A120G A145C C150A C169U U176C: TRUE
- C82U A111G A120U A145G C150G U176G: FALSE
- A111U A120G C150G C169G U176C: FALSE
- A111C A120G A145C C150A U176A: TRUE
- C82U A120C C150G C169U U176G: FALSE
- C82A A111U A120U A145C C150A C169G: FALSE
- C82A A111C A120G C150A U176A: TRUE
- C82U A111U A145U C169G U176G: FALSE
- C82G A111C A120G A145U C150U C169A: TRUE
- C82U A120G C150U C169A: TRUE
- A111U A120G C150A C169U U176G: FALSE
- C82A A111G A120G A145C C150A U176G: FALSE
- C82U A111C A120C A145C C150A U176C: TRUE
